- Test system: SGC-7901
- method notes: Antiproliferative activity against cisplatin resistant human SGC-7901 cells assessed as sensitizing activity at 20 uM in presence of cisplatin
- Assay type: functional, cell-based
Activity calls are given as the source filed them. The rule behind the calls is not given here.
Thanks in advance; please answer with one of these: active, inactive

See these solved cases before continuing.
                                   compound  assigned_class
0  COc1ccc(CN[C@@H]2CC[C@@H](c3ccc(Cl)c(Cl)c3)c3ccccc32)cc1 (relative stereo)          active
1  Clc1ccc(CN[C@@H]2CC[C@@H](c3ccc(Cl)c(Cl)c3)c3ccccc32)cc1Cl (relative stereo)        inactive
2  Clc1ccc([C@@H]2CC[C@@H](NCc3cccc4ccccc34)c3ccccc32)cc1Cl (relative stereo)        inactive

Turning now to a further compound:
Query: Please state the recorded outcome for this compound: N[C@@H]1CC[C@H](c2ccc(Cl)c(Cl)c2)c2ccccc21 (relative stereo)
Result: inactive
